Recorded Ki, one value per entry.
- Tested on: L1210
- experiment-description: Inhibitory activity against leucine-preferring transport system (system L) was determined in murine leukemia L1210 cell lines
- Format: functional, cell-based, Mus musculus
Use µM as the unit, but write only the number.

molecule | assay-metric | recorded-measurement
NC1(C(=O)O)CCc2c(cccc2N(CCCl)CCCl)C1 (configuration not stated) | Ki | 15.2

Here's the next entry for you.
Prompt: Given the molecule NC1(C(=O)O)CCc2ccccc2C1 (configuration not stated) , write its reported Ki.
Completion: 5

====

- experiment-description: Therapeutic index is the ratio of LD90 of CFU-C to LD90 of L1210 cell lines
- Type: cell-based
- experimental-parameters: mouse, CFU-C and L1210 cells
assay-metric: selectivity ratio
When you answer, write just the number.

Prompt: Given the molecule NC1(C(=O)O)CCc2ccc(N(CCCl)CCCl)cc2C1 (stereo unspecified) , write its reported selectivity ratio.
Completion: 0.9

Taken from ChEMBL document CHEMBL1123699.
